- EXPERIMENTAL DETAILS: reduction of polyQ htt aggregates in cells – imaging, exon1htt(103Q)mCFP cells, high-content imaging, primary screen (AID 483);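 note: compound exposure lasted 3 days before fixation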
- CONDITION SUMMARY: exon1htt(103Q)mCFP cell line, aggregate imaging, at 2 µM
The source made the active and inactive calls.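 Rule for the calls: active = visual image review flags a hit and inhibition of aggregation exceeds 20%; inconclusive = visual hit but inhibition at or below 20%; inactive = no hit on visual image review.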
Give one outcome, nothing more. List: active, inactive

Query: Could you kindly confirm the outcome this assay logged for "COc1ccc2cc(C#N)c(N3CCN(Cc4nnnn4CCC(C)C)CC3)nc2c1" ?
Reply: inactive

Query: Next entry: "O=C(CCCn1ncn2c(cc3occc32)c1=O)N1CCc2ccccc2C1"
Reply: inactive

Query: What would you report for "O=c1oc2c3c4c(cc2cc1-c1nc2ccccc2[nH]1)CCCN4CCC3" ?
Reply: active

Query: Now try O=C(NCC1CCCO1)c1cccc(N2C(=O)C3C4C=CC(C4)C3C2=O)c1 (stereo unspecified) .
Reply: inactive

Query: Next compound up: "CN(C)C(=O)CSc1nnc([C@H](Cc2c[nH]c3ccccc23)NC(=O)OC(C)(C)C)o1"
Reply: inactive

Query: Now try "N#CCC(=O)Nc1ncn(Cc2ccccc2Cl)n1" .
Reply: inactive

Query: What about CCN(CC)C(=O)C1CCN(CC2CC=CCC2)CC1 (stereo unspecified) ?
Reply: inactive

Query: Now the same for "Cc1c(C(=O)NCc2ccccn2)oc2ccccc12"
Reply: inactive

Query: // query: "O=C(Nc1cccc(F)c1)c1cccc(S(=O)(=O)N2CCOCC2)c1"
Reply: inactive

Query: One more compound: Cn1c(=O)[nH]c(=O)c2c1nc(N1CCOCC1)n2CC(O)COc1ccc2ccccc2c1 (stereo unspecified)
Reply: inactive

Query: Further, for "O=C(CN1C(=O)COCC1=O)N1CCOCC1" ?
Reply: inactive

Hello, the source for this data is PubChem BioAssay, in case you need it.
